- ASSAY_REMARKS: Liver microsomal stability
- Format: in vitro ADME
- CONDITION_DESCRIPTION: human, liver microsomes, 1 µM compound, 0.5 mg/mL microsomes, 30 min, 37 °C; read-out: Human Liver Microsomal Stability (% remaining after 30 min)
OBSERVATION_TYPE: remaining at 0.5 h, 1 µM (%)

- CHEMICAL_SMILES: "CCOc1ccc(-n2c(SCC(=O)N3CCN(Cc4ccccc4)CC3)nc3sc4c(c3c2=O)CCN(C(C)=O)C4)cc1"
  UOM: "%"
  NUMERIC_VALUE: 4.3

1: CCOc1ccc(-n2c(SCC(=O)N(C)Cc3ccccc3)nc3sc4c(c3c2=O)CCN(C)C4)cc1
2: CCOc1ccc(-n2c(SCC(=O)NCc3ccc(C)cc3)nc3sc4c(c3c2=O)CCN(C(C)=O)C4)cc1
Compare the recorded remaining at 0.5 h, 1 µM of 1 and 2 ; state which is larger. // caller expects the label of the chosen entry
1

---

- ASSAY_REMARKS: Pharmacokinetic study in SD male rats
- Format: in vivo, rat
- CONDITION_DESCRIPTION: Sprague-Dawley, rat, plasma, intravenous, 10 mg/kg, n = 3, mean ± SD
OBSERVATION_TYPE: AUC(0-inf) (µg·h/mL)

1: CCOc1ccc(-n2c(SCC(=O)N3CCN(c4ccccc4)CC3)nc3sc4c(c3c2=O)CCN(C(C)=O)C4)cc1 [Compound 44]
2: CCOc1ccc(-n2c(SCC(=O)NCc3ccccc3)nc3sc4c(c3c2=O)CCN(C(C)=O)C4)cc1 [Compound 31]
Given 1 and given 2 , which shows the smaller recorded AUC(0-inf)? // caller expects the label of the chosen entry
2
(2: 5.51 µg·h/mL, 1: 17.8 µg·h/mL)

---

- TEST_SYSTEM: CYP2C19 (Homo sapiens)
- Construct: purchased Invitrogen, Madison, WI, USA
- Sequence (P33261 whole entry): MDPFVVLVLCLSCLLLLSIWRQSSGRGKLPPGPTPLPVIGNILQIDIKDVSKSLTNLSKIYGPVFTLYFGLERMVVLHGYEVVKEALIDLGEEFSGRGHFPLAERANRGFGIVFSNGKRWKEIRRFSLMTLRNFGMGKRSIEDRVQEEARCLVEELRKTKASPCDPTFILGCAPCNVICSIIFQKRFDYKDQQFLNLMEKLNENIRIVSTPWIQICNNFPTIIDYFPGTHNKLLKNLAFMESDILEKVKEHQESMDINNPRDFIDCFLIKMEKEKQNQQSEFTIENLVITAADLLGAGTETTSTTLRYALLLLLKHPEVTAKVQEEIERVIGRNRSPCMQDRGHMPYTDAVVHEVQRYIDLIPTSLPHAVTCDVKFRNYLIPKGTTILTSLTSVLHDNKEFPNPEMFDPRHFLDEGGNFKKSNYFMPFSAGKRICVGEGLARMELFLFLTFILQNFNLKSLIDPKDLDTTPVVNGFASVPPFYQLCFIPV
- ASSAY_REMARKS: CYP inhibition assay (Vivid CYP450 screening kit)
- Assay type: in vitro ADME
- CONDITION_DESCRIPTION: 10 μM compound
OBSERVATION_TYPE: CYP450 (% remaining Activity at 10 μM) CYP2C19 (%)

Worked examples follow.
- MOLECULE: "CCCN(CCC)C(=O)CSc1nc2sc3c(c2c(=O)n1-c1ccc(OCC)cc1)CCN(C)C3 [Compound 56]"
  TEST_SYSTEM: "CYP2C19 (Homo sapiens)"
  NUMERIC_VALUE: 30.5
- MOLECULE: "CCOc1ccc(-n2c(SCC(=O)NC3CCN(C)CC3)nc3sc4c(c3c2=O)CCN(C(C)=O)C4)cc1 [Compound 30]"
  TEST_SYSTEM: "CYP2C19 (Homo sapiens)"
  NUMERIC_VALUE: 107.6
- MOLECULE: "CCOc1ccc(-n2c(SCC(=O)N(C)Cc3ccccc3)nc3sc4c(c3c2=O)CCN(C(C)=O)C4)cc1 [Compound 32]"
  TEST_SYSTEM: "CYP2C19 (Homo sapiens)"
  NUMERIC_VALUE: 23.3

a: CCOc1ccc(-n2c(SCC(=O)N3CCN(Cc4ccccc4)CC3)nc3sc4c(c3c2=O)CCN(C(C)=O)C4)cc1 [Compound 45]
b: CCCCN(CCCC)C(=O)CSc1nc2sc3c(c2c(=O)n1-c1ccc(OCC)cc1)CCN(C(C)=O)C3 [Compound 40]
Given a and given b , which shows the smaller recorded CYP450 (% remaining Activity at 10 μM) CYP2C19? // caller expects the label of the chosen entry
a
(a: 23.2%, b: 57.4%)

---

- ASSAY_REMARKS: Pharmacokinetic study in SD male rats
- Format: in vivo, rat
- CONDITION_DESCRIPTION: male, Sprague-Dawley, rat, plasma, iv, 10 mg/kg, intravenous, n = 5, Table S3, read-out: Terminal half-life
OBSERVATION_TYPE: half-life (h)
Just the number in h, nothing appended.

Could you tell me which half-life is on file for "CCOc1ccc(-n2c(SCC(=O)Nc3ccc(OC)c(OC)c3)nc3sc4c(c3c2=O)CCN(C(C)=O)C4)cc1" ?
1.04

---

- ASSAY_REMARKS: Pharmacokinetic study in SD male rats
- Assay type: in vivo, rat
- CONDITION_DESCRIPTION: Sprague-Dawley, rat, plasma, intravenous, 10 mg/kg, n = 5, Table S3
OBSERVATION_TYPE: clearance (mL/min/kg)
Just the number in mL/min/kg, nothing appended.

Could you tell me which clearance is on file for "CCOc1ccc(-n2c(SCC(=O)Nc3ccc(OC)c(OC)c3)nc3sc4c(c3c2=O)CCN(C(C)=O)C4)cc1" ?
28.9

---

- TEST_SYSTEM: CYP2D6 (Homo sapiens)
- Construct: purchased Invitrogen, Madison, WI, USA
- Sequence (P10635 whole entry): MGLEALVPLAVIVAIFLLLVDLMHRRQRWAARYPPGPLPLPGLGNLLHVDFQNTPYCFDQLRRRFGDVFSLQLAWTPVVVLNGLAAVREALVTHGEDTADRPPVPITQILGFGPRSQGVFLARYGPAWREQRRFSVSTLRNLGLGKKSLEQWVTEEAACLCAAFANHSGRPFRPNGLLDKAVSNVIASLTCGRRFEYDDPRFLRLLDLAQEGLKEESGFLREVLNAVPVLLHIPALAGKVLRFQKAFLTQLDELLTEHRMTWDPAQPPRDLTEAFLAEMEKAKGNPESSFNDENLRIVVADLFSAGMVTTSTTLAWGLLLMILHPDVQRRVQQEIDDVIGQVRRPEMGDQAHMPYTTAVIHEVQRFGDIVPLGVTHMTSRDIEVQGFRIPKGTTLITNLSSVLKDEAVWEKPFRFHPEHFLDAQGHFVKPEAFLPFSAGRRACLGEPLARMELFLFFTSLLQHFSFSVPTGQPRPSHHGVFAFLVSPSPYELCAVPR
- ASSAY_REMARKS: CYP inhibition assay (Vivid CYP450 screening kit)
- Format: in vitro ADME
- CONDITION_DESCRIPTION: 10 μM compound
OBSERVATION_TYPE: CYP450 (% remaining Activity at 10 μM) CYP2D6 (%)

Worked examples follow.
- CHEMICAL_SMILES: "CCOc1ccc(-n2c(SCC(=O)N3CCN(Cc4ccccc4)CC3)nc3sc4c(c3c2=O)CCN(C(C)=O)C4)cc1"
  NUMERIC_VALUE: 107.0
- CHEMICAL_SMILES: "CCOc1ccc(-n2c(SCC(=O)NCc3ccccc3)nc3sc4c(c3c2=O)CCN(C(C)=O)C4)cc1"
  NUMERIC_VALUE: 88.1
- CHEMICAL_SMILES: "CCOc1ccc(-n2c(SCC(=O)NCc3ccc(Cl)cc3)nc3sc4c(c3c2=O)CCN(C)C4)cc1"
  NUMERIC_VALUE: 36.6
- CHEMICAL_SMILES: "CCOc1ccc(-n2c(SCC(=O)NCc3ccc(Cl)cc3)nc3sc4c(c3c2=O)CCN(C(C)=O)C4)cc1"
  NUMERIC_VALUE: 92.6
- CHEMICAL_SMILES: "CCCCN(CCCC)C(=O)CSc1nc2sc3c(c2c(=O)n1-c1ccc(OCC)cc1)CCN(C(C)=O)C3"
  NUMERIC_VALUE: 79.8
- CHEMICAL_SMILES: "CCOc1ccc(-n2c(SCC(=O)NCc3ccc(C)cc3)nc3sc4c(c3c2=O)CCN(C(C)=O)C4)cc1"
  NUMERIC_VALUE: 98.9
- CHEMICAL_SMILES: "CCOc1ccc(-n2c(SCC(=O)N(CC)Cc3ccccc3)nc3sc4c(c3c2=O)CCN(C(C)=O)C4)cc1"
  NUMERIC_VALUE: 82.0
- CHEMICAL_SMILES: "CCOc1ccc(-n2c(SCC(=O)N3CCN(c4ccccc4)CC3)nc3sc4c(c3c2=O)CCN(C(C)=O)C4)cc1"
  NUMERIC_VALUE: 117.3
- CHEMICAL_SMILES: "CCOc1ccc(-n2c(SCC(=O)Nc3ccc(OC)c(OC)c3)nc3sc4c(c3c2=O)CCN(C(C)=O)C4)cc1"
  NUMERIC_VALUE: 83.3
- CHEMICAL_SMILES: "CCOc1ccc(-n2c(SCC(=O)NC3CCN(C)CC3)nc3sc4c(c3c2=O)CCN(C(C)=O)C4)cc1"
  NUMERIC_VALUE: 118.5

1: CCCN(CCC)C(=O)CSc1nc2sc3c(c2c(=O)n1-c1ccc(OCC)cc1)CCN(C)C3
2: CCOc1ccc(-n2c(SCC(=O)NCc3ccccc3)nc3sc4c(c3c2=O)CCN(C)C4)cc1
3: CCOc1ccc(-n2c(SCC(=O)N(C)Cc3ccccc3)nc3sc4c(c3c2=O)CCN(C)C4)cc1
Provide the items ranked by increasing CYP450 (% remaining Activity at 10 μM) CYP2D6. Lab note: final answer is the ordered label list.
3, 2, 1

---

- ASSAY_REMARKS: Pharmacokinetic study in SD male rats
- Assay type: in vivo, rat
- CONDITION_DESCRIPTION: Sprague-Dawley, rat, plasma, intravenous, 10 mg/kg, n = 3
- Procedure: Each test compound at a dose of 10 mg/kg was administered intravenously or orally to male Sprague-Dawley (SD) rats. […] After vortex-shaking and centrifugation at 10,000 rpm for 10 min, 5 µL of the supernatant was analysed by LC-MS/MS [HP1100® HPLC system (Agilent, Santa Clara, CA) combined with API3200® triple-quadrupole mass spectrometer (Applied Biosystems-SCIEX, Concord, Canada)]. […]
OBSERVATION_TYPE: AUC(0-t) (ng·h/mL)

1: CCOc1ccc(-n2c(SCC(=O)N3CCN(c4ccccc4)CC3)nc3sc4c(c3c2=O)CCN(C(C)=O)C4)cc1 [Compound 44]
2: CCOc1ccc(-n2c(SCC(=O)NCc3ccccc3)nc3sc4c(c3c2=O)CCN(C(C)=O)C4)cc1 [Compound 31]
Compare the recorded AUC(0-t) of 1 and 2 ; state which is larger. // caller expects the label of the chosen entry
1
(1: 17600 ng·h/mL, 2: 4560 ng·h/mL)
